Cited source for all entries: the supplement of paper PMC6755084

B1: F1*; the commonest letter at each place (parent)
chain: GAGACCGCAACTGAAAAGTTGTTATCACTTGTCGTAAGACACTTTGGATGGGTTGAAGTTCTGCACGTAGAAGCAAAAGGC

- Variants of: B1
- assay_protocol: fraction ligated after 30 min (ligated reads / total reads); higher = more ligase activity
- run_conditions: with F1*sub RNA substrate (template-directed ligation), 42 °C
measured_endpoint: fraction ligated
Lab note: record the figure alone, no unit after it.

Before answering, review these 3 worked examples.
[[record]]
construct_sequence = "GAGACCGCAACTGAAAAGTTGTTGTCACTTGTCGTAAGACACTTTGGAGGGGTTGAAGTTCTGCACGTAGAAGCAAAAGGC"
measured_endpoint = "fraction ligated"
data_value = 0.731

[[record]]
construct_sequence = "GAGACCGCAACTGAAAAGTTGTTATCACTTGACGTAAGACACTTTGGATGGGTTGATGTTCTGCACGTAGAAGCAAAAGGC"
measured_endpoint = "fraction ligated"
data_value = 0.821

[[record]]
construct_sequence = "GAGACCGCAACTGAAAAGTTGTTATCACTCGTCGTAAGACACTTAGGATGGGTTGAAGTTCTGCACGTAGAAGCAAAAGGC"
measured_endpoint = "fraction ligated"
data_value = 0.668


Data request, read-out fraction ligated, for GAGACCGCAACTGAAAAGTTGTTATAACTTGTCGTATGACACTTTGGATGGGTTGAAGTTCTGCACGTAGAAGCAAAAGGC 0.797

Field request: fraction ligated | item: GAGACCGCAACTGAAAAGTTGTTCTCCCTTGTCGTAAGACACTTTGGATGGGTTGAAGTTCTGCACGTAGAAGCAAAAGGC 0.557

Which fraction ligated value is on record for GAGACCGCAACTGAAAAGTTGTTATCAATTGTCGTAAGACACTTTGGATGGGTTGAAGTTCTGCACGTAGAAGCAAAAGGC ? 0.809

GET /values?readout=fraction ligated&item= GAGACCGCAACTGAAAAGTTGTTATCACTTGTCGTGAGACACTTTGGTTGGGTTGAAGTTCTGCACGTAGAAGCAAAAGGC 0.0834

So what does the record say about fraction ligated for GAGACCGCAACTGAAAAGTTGTTATCACTTGTCGTAAGACACTTTGGATCGGTTCAAGTTCTGCACGTAGAAGCAAAAGGC ? 0.0221

Please report the recorded fraction ligated for GAGACCGCAACTGAAAAGTTGTTATCACTTGTCGTAAGAAACTTTGGATGGGTTGGAGTTCTGCACGTAGAAGCAAAAGGC . 0.785

Name the recorded fraction ligated for GAGACCGCAACTGAAAAGTTGTTATCACTTGTCGTGAGACACTTTGGATGGGTTCAAGTTCTGCACGTAGAAGCAAAAGGC . 0.773

What does the record list as fraction ligated for GAGACCGCAACTGAAAAGTTGTAATGACTTGTCGTAAGACACTTTGGATGGGTTGAAGTTCTGCACGTAGAAGCAAAAGGC ? 0.116
